Hey, just so you know, these numbers are from patent US20200299384A1.

Target: T1, Human CD3 epsilon (CD3epsilon) protein (His Tag) (human, UniProt P07766 23-126)
T1 construct: extracellular domain; Bought protein; also called recombinant human CD3epsilon ECD; not shown: His tag
T1 sequence (P07766 23-126): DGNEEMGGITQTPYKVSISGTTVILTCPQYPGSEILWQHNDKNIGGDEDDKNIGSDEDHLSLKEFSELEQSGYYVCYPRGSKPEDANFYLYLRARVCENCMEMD
Assay: ELISA, antigen coated on plate, HRP-labelled 2nd antibody
Method: Human CD3epsilon, CD3delta and CD3gamma proteins were pre-coated in 96-well plates, respectively. The binding affinity of eight mAbs at various concentrations to these three different CD3 protein extracellular domain was detected by corresponding HRP labeled 2nd antibodies. The binding EC₅₀ (concentration of the test antibody when reaching half maximum binding) were analyzed by using GraphPad Prism software equation: Nonlinear regression (curve fit)—log (agonist) vs. response-Variable slope.
Measured Attribute: ELISA (A450)
Please state the number and follow it with the unit.

The reported value for WBP331_2.488.33 (antibody, V domains shown, Mouse monoclonal antibody from hybridoma; also called WBP3311_2.488.33; W3311-2.488.33) VH: QVQLQQSGPELVKPGTSVKISCKASGFSFTNYYIHWVKQRPGQGPEWIGWIFPGTVNTKYNEKFKGKATLTADTSSNTAFMQLSSLTSADSAVYFCARDSVGIYYFDFWGLGTTLTVSS VL: DIVMSQSPSSLAVSAGEKVTVSCKSSQSLLNNRTRKNYLAWYQQKPGQSPKLLIYWASTRESGVPDRFTGSGSGTDFTLTISSVQAEDLAVYYCTQSFILRTFGGGTKLEIK in terms of ELISA (A450) is 1.7 A450
